Assay: viability loss of HPDE-C7K cells – cell-based, fluorescence, HTS, primary screen (AID 431);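 note: 0% = DMSO solvent wells and 100% = doxorubicin-treated wells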
Details: HPDE-C7K KRASV12 cells, Alamar Blue viability, 48 h; at 10 µM
The campaign covered roughly 63,000 compounds. About 1,100 (1.7%) were called active.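 Rule for the calls: active = compounds whose percent cytotoxicity in the single-dose primary screen, scaled between solvent and toxic-drug controls, exceeds 50; inactive = the rest.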 The list comes from a sample in which actives are over-represented; it also holds close analogues and randomly drawn compounds. Potency and affinity values are given separately.
One label from this list, please: true (active), false (inactive)

Request: Hey, what did the test say about Cc1c(NC(=O)c2ccc3c(c2)OCO3)cccc1-c1nc2ccccc2o1 ?
Result: false

Request: Hey, what did the test say about CCCCS(=O)(=O)/C=C\C1C2C=CC(C2)C1S(=O)(=O)CCCC (stereo not given) ?
Result: false

---

Item-by-item account of cytotoxicity
Assay: viability loss of HPDE-C7K cells – cell-based, fluorescence, HTS, primary screen (AID 431);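 note: 0% = DMSO solvent wells and 100% = doxorubicin-treated wells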
Settings: HPDE-C7K KRASV12 cells, Alamar Blue viability, 48 h; at 10 µM; stronger effect = higher value
Among all 63,000 compounds or so, about 1,100 (1.7%) were called active. Shown is part of a subset that was picked to be rich in actives. Potency and affinity values are given separately.
Kindly answer with a numeric value in %, unit omitted.

Request: Please look up its cytotoxicity: CCN(CC)CCCN1C(=O)C(=O)/C(=C(/O)c2cc(C)ccc2C)C1c1cccnc1 (stereo unspecified)
Result: -4.8

Request: Please look up its cytotoxicity: CCCCn1c(SCC(=O)Nc2nc(C)cs2)nnc1-c1cccnc1
Result: 2.9

Request: Please look up its cytotoxicity: CN(C)c1ccc(/C=[N+](\[O-])C2SC(=S)N(C)C2(C)C)cc1 (stereo unspecified)
Result: -16.8

Request: Please look up its cytotoxicity: O=C(CSC1=NCCS1)Nc1ccnc2ccccc12
Result: -15.4

Request: Please look up its cytotoxicity: COC(=O)c1cc(NC(=O)c2nccnc2C(=O)O)cc(C(=O)OC)c1
Result: -2.1

Request: Please look up its cytotoxicity: Cn1c(-c2ccc(F)cc2)cnc1SCC(=O)N1CCCCC1
Result: -5.4

Request: Please look up its cytotoxicity: CNC(=O)C1CCC(=O)N1Cc1ccc(C)cc1 (stereo unspecified)
Result: -0.7

Request: Please look up its cytotoxicity: COCCn1c(SCC(=O)Nc2nc(C)c(Cl)cc2Cl)nc2ccccc21
Result: -6.8

Request: Please look up its cytotoxicity: CC(=O)c1ccc(NC(=O)CSc2nnc(Cn3c(=O)sc4ccccc43)n2C)cc1
Result: -1.4

Request: Please look up its cytotoxicity: CC(C)CCn1cnc2c(cnn2-c2ccc(F)cc2)c1=O
Result: -10.9

Request: Please look up its cytotoxicity: CCOc1ccccc1CN(Cc1ccco1)S(=O)(=O)c1ccc(-n2cnnn2)c(OC)c1
Result: 53.2

---

Assay: viability loss of HPDE-C7K cells – cell-based, fluorescence, HTS, primary screen (AID 431);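 note: 0% = DMSO solvent wells and 100% = doxorubicin-treated wells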
Details: HPDE-C7K KRASV12 cells, Alamar Blue viability, 48 h; at 10 µM; stronger effect = higher value
Hit rate of the full screen: of about 63,000 compounds, about 1,100 (1.7%) were called active. The entries come from a sample that favours actives as a whole. Results with a measured potency or affinity are listed apart.
measurement_label: cytotoxicity (%)
Kindly answer with a numeric value in %, unit omitted.

Request: Please look up its cytotoxicity: CSc1nnc(-c2nnc(SC)n2-c2ccccc2)n1-c1ccccc1
Result: -8.3

Request: Please look up its cytotoxicity: CC1=C(C(=O)OC(C)C)C(c2cccs2)N2C(=O)CCSC2=N1 (stereo unspecified)
Result: 10.1

Request: Please look up its cytotoxicity: CCOC(=O)c1[nH]c(C)c(C(=O)NCC2CCCO2)c1C (stereo unspecified)
Result: 5.6

Request: Please look up its cytotoxicity: O=C(c1ccc(F)cc1)N(Cc1ccccc1)C1CCS(=O)(=O)C1 (stereo unspecified)
Result: -7.8

Request: Please look up its cytotoxicity: CCOc1ccc(Cc2nn[nH]n2)cc1
Result: -19.6

Request: Please look up its cytotoxicity: CCOC(=O)c1cc(NC(=O)c2ccoc2C)cc(C(=O)OCC)c1
Result: 15.5

Request: Please look up its cytotoxicity: COc1ccc(OC)c(-c2nnc(NC(=O)C(C)Sc3nncn3C)s2)c1 (stereo unspecified)
Result: 4.7

Request: Please look up its cytotoxicity: CN1CCc2nc(SCC(=O)Nc3ccc(F)cc3)c(C#N)cc2C1
Result: -5

Request: Please look up its cytotoxicity: CC1CCCCC1NC(=O)Cn1[nH]c(=O)c2ccccc2c1=O (stereo unspecified)
Result: 0.5

Request: Please look up its cytotoxicity: Cc1ccc(-c2nnc(N3CCN(S(C)(=O)=O)CC3)c3ccccc23)cc1
Result: -3.8

Request: Please look up its cytotoxicity: c1ccc(-c2nnc(N3CCN(c4ccccn4)CC3)c3ccccc23)cc1
Result: -2.1

---

Experiment: viability loss of HPDE-C7K cells – cell-based, fluorescence, HTS, primary screen (AID 431);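 note: 0% = DMSO solvent wells and 100% = doxorubicin-treated wells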
Conditions: HPDE-C7K KRASV12 cells, Alamar Blue viability, 48 h; at 10 µM
In all, about 63,000 compounds went through this assay and about 1,100 (1.7%) were called active.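 Rule for the calls: active = compounds whose percent cytotoxicity in the single-dose primary screen, scaled between solvent and toxic-drug controls, exceeds 50; inactive = the rest.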 For the sample, actives were picked, then their nearest neighbours and some compounds at random. Potency and affinity values are given separately.
One label from this list, please: true (1) (active), false (0) (inactive)

{"compound": "COc1cccc(NC(=O)N2CCC(C(=O)Nc3ccc(C)cc3C)CC2)c1", "cat": "false (0)"}
{"compound": "COc1ccccc1NC(C)=O", "cat": "false (0)"}
{"compound": "CCCCCCOC(=O)C(C#N)c1nc2ccccc2nc1N1CCN(C)CC1 (stereo unspecified)", "cat": "true (1)"}
{"compound": "CCn1c(SCC(=O)Nc2ccc3c(c2)OCCO3)nnc1-c1ccco1", "cat": "false (0)"}

Request: Hey, what did the test say about COC(=O)c1ccccc1NS(=O)(=O)c1ccc(O)c(C(=O)O)c1 ?
Result: false (0)

Request: Hey, what did the test say about CCn1c2ccccc2c2cc(CN3CCN(C(=O)c4ccco4)CC3)ccc21 ?
Result: false (0)

---

Test: viability loss of HPDE-C7K cells – cell-based, fluorescence, HTS, primary screen (AID 431);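 note: 0% = DMSO solvent wells and 100% = doxorubicin-treated wells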
Conditions: HPDE-C7K KRASV12 cells, Alamar Blue viability, 48 h; at 10 µM
Screen size: about 63,000 compounds; about 1,100 (1.7%) were called active.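 Rule for the calls: active = compounds whose percent cytotoxicity in the single-dose primary screen, scaled between solvent and toxic-drug controls, exceeds 50; inactive = the rest.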 The full list was thinned out, with actives kept by preference. Results with a measured potency or affinity are listed apart.
One label from this list, please: T = active, F = inactive

Consider the following illustrative entries.
{"compound": "CCOc1ccccc1NC(=O)NC1CCN(CC(=O)Nc2ccc3c(c2)OCCO3)CC1", "cat": "F"}
{"compound": "Cc1cc(=O)oc2c(N)c(O)ccc12", "cat": "F"}
{"compound": "CCOc1ccccc1NC(=O)Cn1nnc(C(=O)NCc2ccco2)c1N", "cat": "T"}
{"compound": "O=C(Nc1cccc(Cl)c1N1CCCC1)c1ccc(Br)o1", "cat": "T"}
{"compound": "COc1cc(C2Nc3cc(Cl)c(S(N)(=O)=O)cc3S(=O)(=O)N2)cc(OC)c1OC (stereo not drawn)", "cat": "F"}

Request: Hey, what did the test say about O=C(CSc1c2c(nc3ccc(Cl)cc13)CCCC2)N1CCN(C(=O)c2ccco2)CC1 ?
Result: T

Request: Hey, what did the test say about CCOC(=O)c1c(C)n(C)c2ccc(O)c(CN3CCN(C)CC3)c12 ?
Result: F

Request: Hey, what did the test say about Cc1ccc(C2(C(F)(F)F)NC(=O)N3CCCN=C3S2)cc1 (stereo not drawn) ?
Result: F

Request: Hey, what did the test say about CCc1ccc2oc(-c3cc(N)ccc3O)nc2c1 ?
Result: F

Request: Hey, what did the test say about CC(C)c1ccc2oc(-c3cc(N)ccc3O)nc2c1 ?
Result: T

Request: Hey, what did the test say about CN(C)c1ccc(C2CC(=O)NC3=C2C(=O)CC(C)(C)C3)cc1 (stereo not drawn) ?
Result: F

Request: Hey, what did the test say about COc1cccc(OC)c1-c1nn2c(-c3ccccc3Cl)nnc2s1 ?
Result: F

Request: Hey, what did the test say about COc1ccc(N2C(=O)CC(Sc3nccc(C)n3)C2=O)cc1 (stereo not drawn) ?
Result: F

---

Assay: viability loss of HPDE-C7K cells – cell-based, fluorescence, HTS, primary screen (AID 431);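 note: 0% = DMSO solvent wells and 100% = doxorubicin-treated wells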
Details: HPDE-C7K KRASV12 cells, Alamar Blue viability, 48 h; at 10 µM
The campaign covered roughly 63,000 compounds. About 1,100 (1.7%) were called active.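 How the source made its calls: active means compounds whose percent cytotoxicity in the single-dose primary screen, scaled between solvent and toxic-drug controls, exceeds 50; inactive means the rest.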 The list comes from a sample in which actives are over-represented; it also holds close analogues and randomly drawn compounds. Entries with a potency or affinity are not part of this list.
One label from this list, please: active, inactive

{"compound": "CC(C)Cc1nc(N2CCOCC2)c(C#N)c2c1CCC2", "cat": "active"}
{"compound": "COc1ccc(C(=O)N2CCCC(c3nc(-c4cccs4)no3)C2)cc1 (configuration not stated)", "cat": "inactive"}
{"compound": "CCCc1nc(N2CCOCC2)c(C#N)c2c1CCCC2", "cat": "inactive"}
{"compound": "CC1(C)Cc2c(C#N)c(N3CCOCC3)nc(Cc3ccccc3)c2CO1", "cat": "inactive"}
{"compound": "COc1cccc(CN2CCNC(=O)C2CC(=O)O)c1OC (configuration not stated)", "cat": "inactive"}
{"compound": "CCOc1cc(S(=O)(=O)NCCN2CCOCC2)c(C)cc1C", "cat": "inactive"}

Request: Hey, what did the test say about CCc1nc(N2CCCC2)c(C#N)c2c1CCCC2 ?
Result: inactive

Request: Hey, what did the test say about CC(C)Cc1nc(N2CCCCC2)c(C#N)c2c1CCC2 ?
Result: inactive

Request: Hey, what did the test say about CCc1nc(N2CCN(C(=O)c3ccccc3)CC2)c(C#N)c2c1COC(C)(C)C2 ?
Result: inactive

Request: Hey, what did the test say about CC(C)Cc1nc(N2CCN(C(=O)c3ccco3)CC2)c(C#N)c2c1CCC2 ?
Result: active

Request: Hey, what did the test say about CCc1nc(N2CCOCC2)c(C#N)c2c1CCCC2 ?
Result: inactive

Request: Hey, what did the test say about COC(=O)CSc1nnc(SCc2ccccc2)s1 ?
Result: inactive
